# TEST TARGET: Replicase polyprotein 1ab (Severe acute respiratory syndrome coronavirus 2, UniProt P0DTD1)
# PROTOCOL DETAILS: Inhibition of SARS-CoV-2 3CL protease by luciferase reporter assay
Listed here: items and their measured pIC50.
Scale: negative log10 of molar concentration, which is what pIC50 denotes.

Worked set:
SMILES	TEST READOUT	QUANTITATIVE RESULT
C=CC(=O)N(CCC)[C@H](C(=O)NCc1ccc2c(c1)OCO2)c1cccc(O)c1	pIC50	6.00
C=CC(=O)O[C@H](CC)C(=O)NCCc1c[nH]c2ccccc12	pIC50	3.86
C=CC(=O)O[C@H](C(=O)NCc1cccc(OC)c1OC)c1ccc([N+](=O)[O-])cc1	pIC50	5.03

API: the following record is the query input.
Task item: Retrieve pIC50 measured for O=C(CCl)Nc1sc(-c2ccccc2)cc1C(=O)NC1CC1 and print it.
Reply: 5.63

These measurements were taken from ChEMBL document CHEMBL6120938.
